Biological target: T1, Human ST2-his (human, UniProt Q01638-2 19-328, limits assumed)
T1 construct: Expressed in CHO-K1; The printed range starts at Met1; also called human ST2 fused with a 6-histidine tag at the C-terminus
T1 sequence: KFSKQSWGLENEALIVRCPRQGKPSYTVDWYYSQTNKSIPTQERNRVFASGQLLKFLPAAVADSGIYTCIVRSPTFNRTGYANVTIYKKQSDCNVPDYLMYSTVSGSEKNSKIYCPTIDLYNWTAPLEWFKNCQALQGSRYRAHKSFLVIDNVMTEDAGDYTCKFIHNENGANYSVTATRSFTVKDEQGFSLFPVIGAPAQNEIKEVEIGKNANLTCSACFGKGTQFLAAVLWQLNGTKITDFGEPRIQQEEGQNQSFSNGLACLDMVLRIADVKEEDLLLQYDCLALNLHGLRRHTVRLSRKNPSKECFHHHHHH
Test: SPR Biacore X100, ratio of kd at pH 5.5 to kd at pH 7.4
# kd ratio of pH 5.5/pH 7.4 listing for each entry below
Give the figure only, with no unit attached.

Challenge: Returns the measured kd ratio of pH 5.5/pH 7.4 for the input binder. Input: 5888-153-H3L2 (antibody, human IgG4 S228P, kappa, V domains shown, Humanized antibody) VH: QVQLVQSGAEVKKPGASVKVSCKASGYTFTDYELHWVRQAPGQGLEWMGTIDPETGDTVYNQKFKARVTMTADKSTSTAYMELSSLRSEDTAVYYCTRAFYNDYDDAFAYWGQGTLVTVSS VL: EIVMTQSPATLSLSPGERATLSCSVSSSVSYMHWYQQKPGQAPRRLIYDTSKLASGIPARFSGSGSGTDYTLTISSLEPEDAAVYYCQQWNTSPLTFGGGTKVEIKR
Response given: 1.43

Challenge: Fill in: kd ratio of pH 5.5/pH 7.4 of 5888-379-H2L1 (antibody, human IgG4 S228P, kappa, V domains shown, Humanized antibody) VH: QVQLVQSGAEVKKPGASVKVSCKASGYTFINYGMNWVRQAPGQRLEWMGWINTYIGEPTYGDNFKGRVTITRDTSASTAYMELSSLRSEDTAVYYCAREGDAFAYWGQGTLVTVSS VL: DIQMTQSPSSLSASVGDRVTITCKSSQSLLYSGNQNNYLAWYQQKPGKVPKLLIYGASTRESGVPSRFSGSGSGTDFTLTISSLQPEDLATYYCQNDHSYPYTFGGGTKVEIKR is ___
Response given: 11.9

Challenge: GET /values?readout=kd ratio of pH 5.5/pH 7.4&item= 5888-379-H2L2 (antibody, human IgG4 S228P, kappa, V domains shown, Humanized antibody) VH: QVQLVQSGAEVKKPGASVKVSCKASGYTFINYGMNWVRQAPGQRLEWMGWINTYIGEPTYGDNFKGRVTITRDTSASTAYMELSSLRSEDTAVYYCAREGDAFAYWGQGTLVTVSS VL: DIVMTQSPDSLAVSLGERATINCKSSQSLLYSGNQNNYLAWYQQKPGQPPKLLIYGASTRESGVPDRFSGSGSGTDFTLTISSLQAEDVAVYYCQNDHSYPYTFGGGTKVEIKR
Response given: 38.4

Others:
Challenge: Query (binder): 5888-153-H0L1 (antibody, human IgG4 S228P, kappa, V domains shown, Humanized antibody) VH: QVQLVQSGAEVKKPGASVKVSCKASGYTFTDYELHWVRQAPGQGLEWMGTIDPETGDTVYNQKFKARVTMTRDTSTSTVYMELSSLRSEDTAVYYCARAFYNDYDDGFAYWGQGTLVTVSS VL: EIVMTQSPATLSLSPGERATLSCSVSSSVSYMHWYQQKPGQAPRRLIYDTSKLASGIPARFSGSGSGTDYTLTISSLEPEDAAVYYCQQWNSSPLTFGGGTKVEIKR ; field requested: kd ratio of pH 5.5/pH 7.4
Response given: 0.86

Challenge: # get_value(readout='kd ratio of pH 5.5/pH 7.4', item= 5886-156-H1L0 (antibody, human IgG4 S228P, kappa, V domains shown, Humanized antibody expressed in CHO-K1, purified by protein A) VH: QVQLQESGPGLVKPSQTLSLTCTVSGYSITSDYAWNWIRQPPGKGLEWIGYIDYSGSTTYNPSLKSRVTISRDTSKNQFSLKLSSVTAADTAVYYCASTVIDSMDYWGQGTLVTVSS VL: DIVLTQSPASLAVSPGQRATITCRASKSVSTSGHSYMHWYQQKPGQPPKLLIYLASNLESGVPARFSGSGSGTDFTLTINPVEANDTANYYCQHSREFPFTFGQGTKVEIKR )
Response given: 1.03
